pEC50 values, listed per item
Target: mouse PD-L1 (cell surface) (mouse, UniProt Q9EP73)
Sequence (Q9EP73 19-238): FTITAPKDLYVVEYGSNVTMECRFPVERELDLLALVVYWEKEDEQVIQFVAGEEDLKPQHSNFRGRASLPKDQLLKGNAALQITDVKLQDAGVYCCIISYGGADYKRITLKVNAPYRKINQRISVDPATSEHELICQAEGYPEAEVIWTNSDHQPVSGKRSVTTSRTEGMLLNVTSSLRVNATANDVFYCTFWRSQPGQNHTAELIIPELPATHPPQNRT
Test: FACS, Hepa1-6 cells
Keep it numeric: pEC50 is minus log10 of the concentration in mol/L.

Solved entries:
For the binder 3H1-2A2 (antibody, V domains shown) VH: QVQLVESGGGVVQPGGSLRLSCAASGIDFSDTHMHWVRQAPGKQRELVAIITSGGFTDYVDSVKGRFTISRDNSKNTLYLQMNSLRAEDTAVYYCNARRSTIYWGQGTQVTVSS , what pEC50 is on record?
9.51

Okay, and 3H1-3B9 (antibody, V domains shown) VH: QVQLVESGGGVVQPGGSLRLSCAASGIDFSDTHMHWVRQAPGKQRELVAIITSGGFTDYVDSVKGRFTISRDNSKNTLYLQMNSLRAEDTAVYYCNARTSTIYWGQGTQVTVSS ?
9.52

***
For the binder 3H1-1G9 (antibody, V domains shown) VH: QVQLVESGGGVVQPGGSLRLSCAASGIDFDDTHMHWVRQAPGKQRELVAIITSGGLTDYVDSVKGRFTISRDNSKNTLYLQMNSLRAEDTAVYYCNARTSTIYWGQGTQVTVSS , what pEC50 is on record?
9.26

And what about the binder 3H1-hv7 (antibody, V domains shown) VH: QVQLVESGGGVVQPGGSLRLSCAASGIDFSDTHMHWVRQAPGKQRELVAIITSGGSTDYVDSVKGRFTISRDNSKNTLYLQMNSLRAEDTAVYYCNARRSTIYWGQGTQVTVSS ?
8.17

Same thing, different binder: 3H1-2G3 (antibody, V domains shown) VH: QVQLVESGGGVVQPGGSLRLSCAASGIDFSDTHMHWVRQAPGKQRELVAIITSSGSTDYVDSVKGRFTISRDNSKNTLYLQMNSLRAEDTAVYYCNARRSTILWGQGTQVTVSS
9.51

Next record, please: 3H1-6D2 (antibody, V domains shown) VH: QVQLVESGGGVVQPGGSLRLSCAASGIDFNDTHMHWVRQAPGKQRELVAIITSRGSTDYVDSVKGRFTISRDNSKNTLYLQMNSLRAEDTAVYYCNARRSTLYWGQGTQVTVSS
9.29

What do you have for 3H1-2F4 (antibody, V domains shown) VH: QVQLVESGGGVVQPGGSLRLSCAASGIDFSDLHMHWVRQAPGKQRELVAIITSGGSTDYVDSVKGRFTISRDNSKNTLYLQMNSLRAEDTAVYYCNARSSTIYWGQGTQVTVSS ?
9.19

Hey, just so you know, these numbers are from patent US20260365734.
